Entries and their protein stability index values follow.
# System: Saccharomyces cerevisiae
# methodDescription: protein stability index of tFT-peptide fusion (C-terminal peptide) (PSI (0-1 scale)); higher = more stable (slower turnover)
# protocolConditions: genetic background: wild type; temperature: 30 C
Answer as a number with no unit attached.

PSPTALANLARK [SGF29 C-terminal 12 aa] : 0.693
IDLLAENTKTPI [COA1 C-terminal 12 aa] : 0.697
PTPPGLQGPPGL [MSL5 C-terminal 12 aa] : 0.693
NSLTSLSIYAFL [YEL018C-A C-terminal 12 aa] : 0.685
DISDSEGGLFEC [PCI8 C-terminal 12 aa] : 0.694

Notebook: KWGLSKKDGRQA [SLY41 C-terminal 12 aa] , protein stability index read as 0.704

Notebook: LSKKTSGTHTTH [YBR182C-A C-terminal 12 aa] , protein stability index read as 0.695

Notebook: NDSDGTILIPDI [ZDS2 C-terminal 12 aa] , protein stability index read as 0.713

Notebook: IHYKMNENSTNQ [SYO1 C-terminal 12 aa] , protein stability index read as 0.68

Notebook: IGIGTHDLHFGS [YHR052W-A C-terminal 12 aa] , protein stability index read as 0.712

---

# Tested on: Saccharomyces cerevisiae
# methodDescription: protein stability index of tFT-peptide fusion (C-terminal peptide) (PSI (0-1 scale)); higher = more stable (slower turnover)
# protocolConditions: genetic background: das1 deletion; temperature: 30 C
Please use true whenever protein stability index is not below 0.7, and false whenever it is.

YKIKKQPRKKQQ [HST1 C-terminal 12 aa] : true
LFFQDIERFFSC [YMR194C-A C-terminal 12 aa] : true
HLEKKEPKSRKK [YDL129W C-terminal 12 aa] : true
GFLGIRWGPRKD [TIM21 C-terminal 12 aa] : true
PSPTALANLARK [SGF29 C-terminal 12 aa] : false

Determine whether this sequence has protein stability index no lower than 0.7: DFIKNPNDYFKQ [BEM2 C-terminal 12 aa]
true

Determine whether this sequence has protein stability index no lower than 0.7: SNDDFRKMFLGE [PRP24 C-terminal 12 aa]
true

Determine whether this sequence has protein stability index no lower than 0.7: DQFQLITQGIYS [PIK1 C-terminal 12 aa]
true

Determine whether this sequence has protein stability index no lower than 0.7: LMKLFKSSKFSK [GEM1 C-terminal 12 aa]
true

Determine whether this sequence has protein stability index no lower than 0.7: NNDDSANDLIDR [CCH1 C-terminal 12 aa]
false

Determine whether this sequence has protein stability index no lower than 0.7: ARGYVNVMDNIQ [SEC16 C-terminal 12 aa]
false

---

# Test system: Saccharomyces cerevisiae
# methodDescription: protein stability index of tFT-peptide fusion in wild type (PSI (0-1 scale)); higher = more stable (slower turnover)
# protocolConditions: genetic background: wild type
Entries and their protein stability index values follow.
Answer as a number with no unit attached.

LQILRQKMNHQN : 0.117
AITLPMPPLLLR : 0.257
HLVSLPILLFFR : 0.108

Notebook: "AITLPMCPLLLA" , protein stability index read as 0.269

Notebook: "FSMRWTFRYMVN" , protein stability index read as 0.0804

---

Entries and their protein stability index values follow.
# Tested on: Saccharomyces cerevisiae
# methodDescription: protein stability index of tFT-peptide fusion (C-terminal peptide) (PSI (0-1 scale)); higher = more stable (slower turnover)
# protocolConditions: genetic background: wild type; temperature: 37 C
Answer as a number with no unit attached.

Notebook: "RSNLSKSWHRIG" , protein stability index read as 0.212

Notebook: "FSQGFRSPSECL" , protein stability index read as 0.761

Notebook: "NWAIEIRSVKIV" , protein stability index read as 0.303

Notebook: "DFVFFLVSVRFR" , protein stability index read as 0.284

---

# System: Saccharomyces cerevisiae
# methodDescription: protein stability index of tFT-peptide fusion (C-terminal peptide) (PSI (0-1 scale)); higher = more stable (slower turnover)
# protocolConditions: genetic background: wild type; temperature: 30 C
Entries and their protein stability index values follow.
Answer as a number with no unit attached.

RPSPMPTATPAT : 0.701

Notebook: "KIKRKKSIHDKQ" , protein stability index read as 0.693

Notebook: "LVLLTRSASLLG" , protein stability index read as 0.691

Notebook: "LPPCPPGGRRSR" , protein stability index read as 0.706

---

# Test system: Saccharomyces cerevisiae
# methodDescription: protein stability index of tFT-peptide fusion (C-terminal peptide) (PSI (0-1 scale)); higher = more stable (slower turnover)
# protocolConditions: genetic background: wild type; temperature: 30 C
reportedProperty: protein stability index
Answer as a number with no unit attached.

Below: 2 sequences and their reported protein stability index.
GGGFLGGTVAAV : 0.7
AVSHGLFALPFL : 0.703

Notebook: "RRKRKQQNTTTE" , protein stability index read as 0.685

---

# Test system: Saccharomyces cerevisiae
# methodDescription: protein stability index of tFT-peptide fusion (C-terminal peptide) (PSI (0-1 scale)); higher = more stable (slower turnover)
# protocolConditions: genetic background: cdc53-1; temperature: 37 C
reportedProperty: protein stability index
Answer as a number with no unit attached.

Below: 5 sequences and their reported protein stability index.
CFVQVGGLVKIS : 0.725
SVSQTSILDSRL : 0.756
ESCFGMAIFCVT : 0.571
ASLSSSRPPLLP : 0.752
WVLSRAAFVFFF : 0.612

As a next step, examine the sequence that follows.
Simply: "GGICVVAYWRLA" , Saccharomyces cerevisiae, protein stability index = 0.518

---

# Tested on: Saccharomyces cerevisiae
# methodDescription: protein stability index of tFT-peptide fusion (C-terminal peptide) (PSI (0-1 scale)); higher = more stable (slower turnover)
# protocolConditions: genetic background: wild type; temperature: 30 C
reportedProperty: protein stability index
Answer as a number with no unit attached.

Below: 5 sequences and their reported protein stability index.
SGRFRFVLLGLV : 0.203
VGWWVAVGWGLG : 0.704
ESRGVRAGTWQG : 0.694
PSLGLSIPTPLP : 0.685
DRGFSVGGGWGW : 0.676

Notebook: "LLSNTINRIWRN" , protein stability index read as 0.658

Notebook: "YLGFRADVVFGK" , protein stability index read as 0.712

Notebook: "RLSSVPSRSLPA" , protein stability index read as 0.733

Notebook: "RIAIRSAVICAS" , protein stability index read as 0.183

Notebook: "VRRRLRLFLMWG" , protein stability index read as 0.588

---

# System: Saccharomyces cerevisiae
# methodDescription: protein stability index of tFT-peptide fusion in deletion strain of DOA10 (PSI (0-1 scale)); higher = more stable (slower turnover)
Entries and their protein stability index values follow.
Answer as a number with no unit attached.

Below: 2 sequences and their reported protein stability index.
RVTRLDANYFRI : 0.716
GLYKCSVGCWFR : 0.671

Notebook: "RSNRVLLPLYFR" , protein stability index read as 0.701

Notebook: "AITLKMCPLLLR" , protein stability index read as 0.624

---

# System: Saccharomyces cerevisiae
# methodDescription: protein stability index of tFT-peptide fusion (C-terminal peptide) (PSI (0-1 scale)); higher = more stable (slower turnover)
# protocolConditions: genetic background: wild type; temperature: 30 C
Entries and their protein stability index values follow.

HFKTLVEAFTRN [VPS52 C-terminal 12 aa] : 0.714
SVEEAFQLKSFD [LAA1 C-terminal 12 aa] : 0.715
WEKFIELEKNYK [MST1 C-terminal 12 aa] : 0.799
SALILMYKGFGL [UBP6 C-terminal 12 aa] : 0.683
LDIFCLIFRKRT [YPR076W C-terminal 12 aa] : 0.506

Notebook: EYDDDSGNQGVW [GRE1 C-terminal 12 aa] , protein stability index read as 0.739

Notebook: TVPGDENKITKK [PDR12 C-terminal 12 aa] , protein stability index read as 0.654

Notebook: NEQFDHKFDETL [APL4 C-terminal 12 aa] , protein stability index read as 0.671

Notebook: ILELPHVVSDLF [SDT1 C-terminal 12 aa] , protein stability index read as 0.715

Notebook: ASRFAQFLKQDA [MET16 C-terminal 12 aa] , protein stability index read as 0.764

Notebook: YALKRNAFKLLK [CRD1 C-terminal 12 aa] , protein stability index read as 0.691

Notebook: PFGNGFKMNFGL [JEM1 C-terminal 12 aa] , protein stability index read as 0.677

Notebook: NPVGVPNDDHHH [COX4 C-terminal 12 aa] , protein stability index read as 0.668

Notebook: RKGWTGFKKVFK [GYP5 C-terminal 12 aa] , protein stability index read as 0.699

Notebook: IIEEKVRNYLNK [RIB5 C-terminal 12 aa] , protein stability index read as 0.685

Notebook: PLSASWCTSLVT [YHR173C C-terminal 12 aa] , protein stability index read as 0.671

Notebook: PCRYLELRKFGR [TPN1 C-terminal 12 aa] , protein stability index read as 0.74

Notebook: HLYDHILEKMVK [CNM67 C-terminal 12 aa] , protein stability index read as 0.7
